In this section we review reported IC50 values for a set of compounds.
# subject-of-test: Transcriptional regulator MvfR (Pseudomonas aeruginosa PA14, UniProt A0A072ZLE6)
# Sequence (A0A072ZLE6 whole entry): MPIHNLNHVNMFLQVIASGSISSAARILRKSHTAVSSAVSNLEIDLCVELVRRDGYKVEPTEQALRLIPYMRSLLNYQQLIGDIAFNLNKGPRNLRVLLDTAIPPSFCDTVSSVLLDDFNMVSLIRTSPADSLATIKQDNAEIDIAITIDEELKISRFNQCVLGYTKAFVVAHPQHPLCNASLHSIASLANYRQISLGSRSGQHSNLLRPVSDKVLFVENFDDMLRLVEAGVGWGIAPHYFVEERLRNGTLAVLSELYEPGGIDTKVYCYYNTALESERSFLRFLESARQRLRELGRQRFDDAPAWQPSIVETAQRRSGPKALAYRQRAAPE
# procedure-details: Antagonist activity at PqsR in wild-type Pseudomonas aeruginosa PAO1-L
quantity-kind: IC50 (nM)

structure_string=CCCCCCCCCc1nc2cc(F)ccc2c(=O)n1N recorded_result=1200
structure_string=CCCCCCCCCc1nc2cc(Cl)ccc2c(=O)n1N recorded_result=1200

====

# System: Enterococcus faecalis
# procedure-details: Antibiofilm activity against Enterococcus faecalis ATCC 29212 assessed as biofilm eradication incubated for 20 mins by crystal violet staining based analysis
# Type: functional
Form field: MBEC (one value per entry).
quantity-kind: MBEC (µg/mL)

structure_string=N#Cc1ccc(-c2csc(-c3ccc(-c4cnc(-c5ccccc5)s4)cc3)n2)cc1 unit_string=µg/mL recorded_result=0.002
structure_string=Clc1ccc(-c2csc(-c3ccc(-c4cnc(-c5ccccc5)s4)cc3)n2)cc1 unit_string=µg/mL recorded_result=0.016
structure_string=NC(=O)c1cc(-c2csc(-c3ccc(-c4cnc(-c5ccccc5)s4)cc3)n2)ccc1O unit_string=µg/mL recorded_result=0.008
structure_string=c1ccc(-c2csc(-c3ccc(-c4cnc(-c5ccccc5)s4)cc3)n2)cc1 unit_string=µg/mL recorded_result=0.002
structure_string=O=[N+]([O-])c1ccc(-c2csc(-c3ccc(-c4cnc(-c5ccccc5)s4)cc3)n2)cc1 unit_string=µg/mL recorded_result=0.002
structure_string=COc1ccc(-c2csc(-c3ccc(-c4cnc(-c5ccccc5)s4)cc3)n2)cc1 unit_string=µg/mL recorded_result=0.004

====

# subject-of-test: Transcriptional regulator MvfR (Pseudomonas aeruginosa PA14, UniProt A0A072ZLE6)
# procedure-details: Antagonist activity at PqsR in wild-type Pseudomonas aeruginosa PA14 assessed as reduction in AQ level at 0.2 uM by LCMS/MS analysis
quantity-kind: IC50 (µM)

compound="O=CN1N=C(c2ccccc2)CC1c1cccc(Nc2ccnc3cc(Cl)ccc23)c1 (stereo unspecified)" quantity_kind=IC50 unit_string=µM recorded_result=2.3

====

# subject-of-test: Transcriptional regulator MvfR (Pseudomonas aeruginosa PA14, UniProt A0A072ZLE6)
# procedure-details: Inhibition of PqsR-mediated quorum sensing system in Pseudomonas aeruginosa PAO1 assessed as reduction in pyocyanin production
pIC50: −log10 of the molar value.
Some compounds, each annotated with its measured pIC50.
quantity-kind: pIC50

structure_string=Clc1ccc2c(NCCCCCCCCNCc3cc4ccccc4s3)ccnc2c1 recorded_result=4.52
structure_string=Clc1ccc2c(NCCCCCCCCNCc3cc4ccccc4o3)ccnc2c1 recorded_result=4.60

====

# System: Staphylococcus aureus
# procedure-details: Antibacterial activity against methicillin-sensitive Staphylococcus aureus ATCC 29213 assessed as reduction in bacterial growth incubated for 18 hrs by mueller hinton broth dilution method
# Assay type: functional, organism-based
# assay-conditions: ATCC 29213, 18 h
quantity-kind: IC50 (µM)

structure_string=CCCCCCCCCC(=O)NCCCc1cnc(N)nc1 recorded_result=67

====

# Tested on: Staphylococcus aureus
# procedure-details: Antibiofilm activity against methicillin-resistant Staphylococcus aureus assessed as inhibition of biofilm formation incubated for 8 hrs by crystal violet staining based analysis
# Type: functional, organism-based
quantity-kind: IC50

structure_string=Nc1nc2cc(NC(=O)c3c(Cl)c(Cl)c(Cl)c(Cl)c3C(=O)O)ccc2[nH]1 subject_of_test="Staphylococcus aureus" quantity_kind=IC50 recorded_result="1500 nM"
